Target: BuChE obtained from equine serum (EqBuChE) (Equus caballus)
Sequence (P81908 whole entry): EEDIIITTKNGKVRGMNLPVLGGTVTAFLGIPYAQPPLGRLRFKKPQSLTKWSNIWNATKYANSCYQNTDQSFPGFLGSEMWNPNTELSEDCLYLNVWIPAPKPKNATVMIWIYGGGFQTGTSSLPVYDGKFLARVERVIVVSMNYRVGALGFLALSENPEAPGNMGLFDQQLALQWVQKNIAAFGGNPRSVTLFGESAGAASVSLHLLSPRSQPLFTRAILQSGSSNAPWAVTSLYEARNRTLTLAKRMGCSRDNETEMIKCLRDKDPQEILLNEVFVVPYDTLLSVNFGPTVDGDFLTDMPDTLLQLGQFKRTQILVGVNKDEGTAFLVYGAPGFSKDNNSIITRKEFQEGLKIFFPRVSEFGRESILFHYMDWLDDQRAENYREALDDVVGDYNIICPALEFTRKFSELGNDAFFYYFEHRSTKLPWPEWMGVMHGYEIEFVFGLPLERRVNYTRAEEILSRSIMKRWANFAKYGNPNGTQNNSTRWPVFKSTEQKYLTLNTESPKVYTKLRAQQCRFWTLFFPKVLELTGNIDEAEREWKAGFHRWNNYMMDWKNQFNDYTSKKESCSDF
Assay: biochemical
Type: biochemical
Details: IC50 BuChE, mean ± SD, n = three independent experiments; BTCh 40 µM
reported.property: IC50 (µM)

[
  {
    "sample.smiles": "O=C(N/N=C/c1ccccc1Cl)c1ccc(C(F)(F)F)cc1",
    "system": "BuChE obtained from equine serum (EqBuChE) (Equus caballus)",
    "reading": 63.6
  }
]

* * *

Biological target: AChE isolated from electric eel (EeAChE) (Electrophorus electricus, UniProt O42275)
Sequence (O42275 24-633): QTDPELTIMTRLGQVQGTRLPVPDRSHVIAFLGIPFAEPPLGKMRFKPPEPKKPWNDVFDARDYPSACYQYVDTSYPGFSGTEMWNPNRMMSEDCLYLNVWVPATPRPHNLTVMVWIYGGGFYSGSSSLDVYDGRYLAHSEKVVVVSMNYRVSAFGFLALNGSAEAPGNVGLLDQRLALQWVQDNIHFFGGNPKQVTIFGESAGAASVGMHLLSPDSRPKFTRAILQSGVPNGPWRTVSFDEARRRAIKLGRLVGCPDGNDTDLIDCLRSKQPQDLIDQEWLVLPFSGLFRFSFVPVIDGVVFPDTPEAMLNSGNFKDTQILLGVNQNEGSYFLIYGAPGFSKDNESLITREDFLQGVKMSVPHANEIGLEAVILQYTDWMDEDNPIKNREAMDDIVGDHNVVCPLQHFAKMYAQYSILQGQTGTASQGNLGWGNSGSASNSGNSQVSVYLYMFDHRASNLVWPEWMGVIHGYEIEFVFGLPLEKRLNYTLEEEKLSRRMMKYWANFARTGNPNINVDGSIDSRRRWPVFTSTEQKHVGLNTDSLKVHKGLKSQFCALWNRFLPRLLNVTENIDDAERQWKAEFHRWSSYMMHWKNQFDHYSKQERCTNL
Assay: biochemical
Conditions: mean ± SD, n = three independent experiments; ATCh 40 µM

[
  {
    "compound": "O=C(NN=C1CCCC1)c1ccc(C(F)(F)F)cc1 [3b]",
    "system": "AChE isolated from electric eel (EeAChE) (Electrophorus electricus, UniProt O42275)",
    "IC50, µM": 69.2
  },
  {
    "compound": "O=C(N/N=C/c1cccc(Cl)c1)c1ccc(C(F)(F)F)cc1 [2c]",
    "system": "AChE isolated from electric eel (EeAChE) (Electrophorus electricus, UniProt O42275)",
    "IC50, µM": 77.1
  },
  {
    "compound": "O=C(N/N=C/c1ccc([N+](=O)[O-])cc1)c1ccc(C(F)(F)F)cc1 [2m]",
    "system": "AChE isolated from electric eel (EeAChE) (Electrophorus electricus, UniProt O42275)",
    "IC50, µM": 60
  }
]
